Tested on: Escherichia coli TOP10;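 further: peptides expressed intracellularly from a pBAD plasmid library in pooled LB shake-flask culture, induced with 0.3% L-arabinose, DNA abundance read by NGS, three biological replicates, DESeq2 with apeglm shrinkage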
assaySummary: shrunken log2 fold change of peptide-encoding DNA abundance (4.5 h post-induction vs induction); higher = less antimicrobial activity (less host growth inhibition)
conditionSet: time post-induction: 4.5 h; library: site-saturation at positions 5, 18, 19, 20
For each record, write down the corresponding shrunken log2 fold change.

Item RRIRARPPRLPRPRPRPTHVPRP : provide shrunken log2 fold change
0.813

Could you please provide reported shrunken log2 fold change for RRIRWRPPRLPRPRPRPIHAPRP ? Thanks!
0.0364

Using known records, supply shrunken log2 fold change for RRIRWRPPRLPRPRPRPDEIPRP
0.0148

Give the value of shrunken log2 fold change reported for the following: RRIRPRPPRLPRPRPRPLPVPRP
-0.4

The values you see were collected from the supplement of paper PMC9112550.
